# System: CAKI-1 renal
# ASSAY_INFO: NCI-60 one-dose screen, 48 h
# CONDITION_PARAMETERS: 10 µM unless noted
About 83,000 compounds went through this panel and 20% of them were active in at least one assay; those are over-represented in the sample as a whole. Calls of active or inactive are those of the source. Rule for the calls: active = growth percent below 10; inactive = the rest.
Outcomes: t (active), f (inactive)

- COMPOUND: "C=CCn1c(C)nc2cc(Nc3nc(N4CCOCC4)nc4nc[nH]c34)ccc21"
  STUDY_SYSTEM: "CAKI-1 renal"
  CLASS: "f"
- COMPOUND: "Cc1c(O)c(=O)n(-c2ccccc2)n1C"
  STUDY_SYSTEM: "CAKI-1 renal"
  CLASS: "f"
- COMPOUND: "CNCc1ccccc1CN(CC(=O)Nc1ccc2c(c1)CC1(C2)C(=O)Nc2ncccc21)C(=O)C(C)(C)C (configuration not stated)"
  STUDY_SYSTEM: "CAKI-1 renal"
  CLASS: "f"
- COMPOUND: "Cc1cc(NC(=O)c2ccc(N)cc2)ccc1N=Nc1ccc2cc(S(=O)(=O)O)cc(S(=O)(=O)O)c2c1"
  STUDY_SYSTEM: "CAKI-1 renal"
  CLASS: "f"
- COMPOUND: "Cc1ccc(S(=O)(=O)NC(CCC(=O)Nc2ccc(Cl)cc2)C(=O)Nc2ccc(Cl)cc2)cc1 (configuration not stated)"
  STUDY_SYSTEM: "CAKI-1 renal"
  CLASS: "f"
- COMPOUND: "CC(=O)c1c(C)nc(-c2cc(C)cc(Cl)c2)nc1-c1cccc(Oc2ccccc2)c1"
  STUDY_SYSTEM: "CAKI-1 renal"
  CLASS: "f"
- COMPOUND: "C#CC[C@@H]1C[C@]2(C)[C@H]3CC=C4[C@H]5[C@@H](C)[C@H](C)CC[C@]5(C(=O)NCCCCCCCCN)CC[C@@]4(C)[C@]3(C)CC[C@H]2C(C)(C)[C@H]1OC(C)=O"
  STUDY_SYSTEM: "CAKI-1 renal"
  CLASS: "t"

====

# Test system: HCT-116 colon
# ASSAY_INFO: NCI-60 one-dose screen, 48 h (100 = growth as untreated, 0 = no growth, -100 = all killed)
# CONDITION_PARAMETERS: 10 µM unless noted
About 83,000 compounds went through this panel and 20% of them were active in at least one assay; those are over-represented in the sample as a whole.

- COMPOUND: "COc1cc2nccc(Oc3ccc(NC(=O)C4(C(=O)Nc5ccc(F)cc5)CC4)cc3)c2cc1O"
  growth / %: 52
- COMPOUND: "COc1cc(NCCCCC(C)N)c2nccc(C)c2c1 (stereo not drawn)"
  growth / %: 99.2
- COMPOUND: "OC(c1cc2cc(Cl)ccc2c2cc(C(F)(F)F)ccc12)C1CCCCN1 (stereo not drawn)"
  growth / %: -85.8
- COMPOUND: "COc1ccc(Nc2ncccc2C(=O)NCc2cn(Cc3cc(OC)cc(OC)c3)nn2)cc1"
  growth / %: 94.8
- COMPOUND: "CCCCCCCCCCCCCCCCS(=O)(=O)Nc1cc(C(=O)NN)cc(C(=O)NN)c1"
  growth / %: 71.3
- COMPOUND: "Cc1cc(-c2nnc(/C=C/c3ccc4c(c3)OCO4)o2)n[nH]1"
  growth / %: 48.1
- COMPOUND: "O=[N+]([O-])c1ccccc1CN1CCCCC1"
  growth / %: 106
- COMPOUND: "Cc1c(O)c(=O)n(-c2ccccc2)n1C"
  growth / %: 109
- COMPOUND: "O=C(NC1CC1)c1ccc(-c2nc3ccc4[nH]ncc4c3c3c2CCCC3)cc1"
  growth / %: 17
- COMPOUND: "C=CCn1c(SCC(=O)Nc2ccc(/C(C)=N\\O)cc2)nnc1-c1cc(-c2ccc(Cl)cc2)nc2ccccc12"
  growth / %: 19.5
- COMPOUND: "FC1(F)CCN(Cc2c[nH]c3cc(Cl)ccc23)C[C@H]1CCc1ccccc1"
  growth / %: 22.8
- COMPOUND: "CO[C@@]12[C@@H]3NC3CN1C1=C(C(=O)C(N)=C(C)C1=O)[C@@H]2COC(N)=O (stereo partly drawn)"
  growth / %: 6.78
- COMPOUND: "CC1=NC(c2ccc(Cl)cc2)C2=C(N1)/C(=C/c1ccc(Cl)cc1)CCC2 (stereo not drawn)"
  growth / %: -39.9
- COMPOUND: "COC(=O)c1cc2oc(/C=N/NC(=O)c3cc4oc(-c5cccc(C(F)(F)F)c5)cc4[nH]3)cc2n1Cc1ccccc1"
  growth / %: 67.6
- COMPOUND: "O=C(NNC(=S)Nc1ccccc1)c1ccc(Nc2ncnc3c2cnn3-c2cccc(Br)c2)cc1"
  growth / %: 98.9
- COMPOUND: "C#CC[C@@H]1C[C@]2(C)[C@H]3CC[C@@H]4[C@H]5C(C(=C)C)CC[C@]5(C(=O)NCCN(CCN)CCN)CC[C@@]4(C)[C@]3(C)CC[C@H]2C(C)(C)[C@H]1OC(C)=O (stereo partly drawn)"
  growth / %: 2.57
- COMPOUND: "O=C(/C=C/c1cc([N+](=O)[O-])ccc1Cl)c1ccccc1"
  growth / %: -100
- COMPOUND: "N=c1n(Cc2ccccc2)c(N)cc(=O)n1Cc1ccccc1"
  growth / %: 8.12
- COMPOUND: "O=C1/C(=C\\c2cccn2Cc2ccc(F)cc2)c2ccccc2N1c1c(Cl)cccc1Cl"
  growth / %: 70.8
- COMPOUND: "c1ccc(C(Nc2ccccn2)(c2ccccc2)c2ccccc2)cc1"
  growth / %: 65.7
- COMPOUND: "O=C(CSc1ccc(Cl)cc1)Nc1ccc(-c2nc3ccccc3s2)c(Cl)c1"
  growth / %: 19.7
- COMPOUND: "COc1ccc2[nH]c(O)c(/C=c3/ccc4c(c3)N=C(c3ccc(C(F)(F)F)cc3)N=4)c2c1"
  growth / %: 56
- COMPOUND: "COc1ccc(/C=C2\\CCCC3=C2N=C2SC(C)=NN2C3c2ccc(OC)c(OC)c2)cc1OC (stereo not drawn)"
  growth / %: -28.1
- COMPOUND: "Cc1nc2c(-c3cnc(N)nc3)nc(N3CCOCC3)nc2n1C(C)C"
  growth / %: 17.2
- COMPOUND: "Oc1ccc(Cl)cc1-c1cc(-c2ccccc2Cl)[nH]n1"
  growth / %: 55.8
- COMPOUND: "COc1ccc(C(=O)C(C#N)c2cc(OC)c(OC)c(OC)c2)cc1 (stereo not drawn)"
  growth / %: 97.5
- COMPOUND: "CC(CN1CCN(CCOCCO)CC1)CN1c2ccccc2Sc2ccc(Cl)cc21 (stereo not drawn)"
  growth / %: 37.5
- COMPOUND: "O=C(O)/C=C(\\c1nc2ccc([N+](=O)[O-])cc2[nH]1)c1cc(Cl)ccc1O"
  growth / %: 8.05
